Let's look at some compounds and their measured Median diameter.
- TEST DESCRIPTION: Median diameter measurement with particle size distribution analyzer
- Assay type: physicochemical
- REPORTED CONDITIONS: reduced coenzyme Q10 crystal obtained; Partica LA-960
Please state the figure in μm; there is no need to write the unit.

Data request: Name the recorded Median diameter for COc1c(O)c(C)c(C/C=C(\C)CC/C=C(\C)CC/C=C(\C)CC/C=C(\C)CC/C=C(\C)CC/C=C(\C)CC/C=C(\C)CC/C=C(\C)CC/C=C(\C)CCC=C(C)C)c(O)c1OC [Example 2, reduced coenzyme Q10] .
Data returned: 87.6

Data request: What about COc1c(O)c(C)c(C/C=C(\C)CC/C=C(\C)CC/C=C(\C)CC/C=C(\C)CC/C=C(\C)CC/C=C(\C)CC/C=C(\C)CC/C=C(\C)CC/C=C(\C)CCC=C(C)C)c(O)c1OC [Example 3, reduced coenzyme Q10] ?
Data returned: 107.3

Data request: Next entry: COc1c(O)c(C)c(C/C=C(\C)CC/C=C(\C)CC/C=C(\C)CC/C=C(\C)CC/C=C(\C)CC/C=C(\C)CC/C=C(\C)CC/C=C(\C)CC/C=C(\C)CCC=C(C)C)c(O)c1OC [Example 1, reduced coenzyme Q10]
Data returned: 115.3

Data request: Please do the same for COc1c(O)c(C)c(C/C=C(\C)CC/C=C(\C)CC/C=C(\C)CC/C=C(\C)CC/C=C(\C)CC/C=C(\C)CC/C=C(\C)CC/C=C(\C)CC/C=C(\C)CCC=C(C)C)c(O)c1OC [Comparative Example 1, reduced coenzyme Q10] as well.
Data returned: 68.2
